assay: Hygroscopicity evaluation by DVS at 25° C.; format: physicochemical; conditions: XRPD after DVS
ATTRIBUTE_MEASURED: Form change after DVS test

- COMPOUND: "[2H]C([2H])(Cc1nc(-c2ccccc2)oc1C)Oc1ccc(C[C@H](OC)C(=O)[O-])c2sccc12.[Na+] [Na salt Form A]"
  RESULT: "form change was observed"
- COMPOUND: "[2H]C([2H])(Cc1nc(-c2ccccc2)oc1C)Oc1ccc(C[C@H](OC)C(=O)[O-])c2sccc12.[K+] [K salt Form C]"
  RESULT: "form change was observed"
- COMPOUND: "[2H]C([2H])(Cc1nc(-c2ccccc2)oc1C)Oc1ccc(C[C@H](OC)C(=O)O)c2sccc12 [free acid Form B]"
  RESULT: "No form change"
- COMPOUND: "N=C(N)NCCCC(N)C(=O)O.[2H]C([2H])(Cc1nc(-c2ccccc2)oc1C)Oc1ccc(C[C@H](OC)C(=O)O)c2sccc12 [arginine salt Form A]"
  RESULT: "No form change"

---

test: Hygroscopicity evaluation by DVS at 25° C.; type: physicochemical; details: DVS, 25° C.
Recorded Water uptake up to 80% RH values for a group of compounds are listed next.
Dear colleague, please send the value followed by its unit.

Some solved cases for reference:
- COMPOUND: "N=C(N)NCCCC(N)C(=O)O.[2H]C([2H])(Cc1nc(-c2ccccc2)oc1C)Oc1ccc(C[C@H](OC)C(=O)O)c2sccc12 [arginine salt Form A]"
  RESULT: "0.5%"
- COMPOUND: "[2H]C([2H])(Cc1nc(-c2ccccc2)oc1C)Oc1ccc(C[C@H](OC)C(=O)[O-])c2sccc12.[K+] [K salt Form C]"
  RESULT: "12.0%"
- COMPOUND: "[2H]C([2H])(Cc1nc(-c2ccccc2)oc1C)Oc1ccc(C[C@H](OC)C(=O)[O-])c2sccc12.[Na+] [Na salt Form A]"
  RESULT: "5.5%"

Pending compound:
Which Water uptake up to 80% RH reading was recorded for the compound [2H]C([2H])(Cc1nc(-c2ccccc2)oc1C)Oc1ccc(C[C@H](OC)C(=O)O)c2sccc12 [free acid Form B] ? 0.07%

---

experiment: physchem; conditions: pH 4.5 (KAc) buffer, 37 °C, pH 4.5, aqueous buffer, thermodynamic from solid
ATTRIBUTE_MEASURED: solubility at 2 h

Which solubility at 2 h reading was recorded for the molecule [2H]C([2H])(Cc1nc(-c2ccccc2)oc1C)Oc1ccc(C[C@H](OC)C(=O)O)c2sccc12 [free acid Form B] ? 0.3 µg/mL

---

assay: physchem; settings: pH 4.5 (KAc) buffer, 37 °C, pH 4.5, aqueous buffer, thermodynamic from solid
ATTRIBUTE_MEASURED: solubility at 24 h (µg/mL)
The figure you give is taken to be in µg/mL; do not add the unit.

Which solubility at 24 h reading was recorded for the compound [2H]C([2H])(Cc1nc(-c2ccccc2)oc1C)Oc1ccc(C[C@H](OC)C(=O)O)c2sccc12 [free acid Form B] ? 0.4

---

conditions: 60° C./close, 4 weeks
Recorded HPLC Reults of initial (%) values for a group of compounds are listed next.
The figure you give is taken to be in %; do not add the unit.

Some solved cases for reference:
- COMPOUND: "[2H]C([2H])(Cc1nc(-c2ccccc2)oc1C)Oc1ccc(C[C@H](OC)C(=O)[O-])c2sccc12.[K+] [K salt Form C]"
  HPLC Reults of initial (%): 99.89
- COMPOUND: "N=C(N)NCCCC(N)C(=O)O.[2H]C([2H])(Cc1nc(-c2ccccc2)oc1C)Oc1ccc(C[C@H](OC)C(=O)O)c2sccc12 [arginine salt Form A]"
  HPLC Reults of initial (%): 100.01
- COMPOUND: "[2H]C([2H])(Cc1nc(-c2ccccc2)oc1C)Oc1ccc(C[C@H](OC)C(=O)[O-])c2sccc12.[Na+] [Na salt Form A]"
  HPLC Reults of initial (%): 99.23

Which HPLC Reults of initial (%) reading was recorded for the compound [2H]C([2H])(Cc1nc(-c2ccccc2)oc1C)Oc1ccc(C[C@H](OC)C(=O)O)c2sccc12 [free acid Form E] ? 99.88
